EXPERIMENTAL_SYSTEM: β-galactocerebrosidase (Mus musculus)
Sequence (P54818 43-684): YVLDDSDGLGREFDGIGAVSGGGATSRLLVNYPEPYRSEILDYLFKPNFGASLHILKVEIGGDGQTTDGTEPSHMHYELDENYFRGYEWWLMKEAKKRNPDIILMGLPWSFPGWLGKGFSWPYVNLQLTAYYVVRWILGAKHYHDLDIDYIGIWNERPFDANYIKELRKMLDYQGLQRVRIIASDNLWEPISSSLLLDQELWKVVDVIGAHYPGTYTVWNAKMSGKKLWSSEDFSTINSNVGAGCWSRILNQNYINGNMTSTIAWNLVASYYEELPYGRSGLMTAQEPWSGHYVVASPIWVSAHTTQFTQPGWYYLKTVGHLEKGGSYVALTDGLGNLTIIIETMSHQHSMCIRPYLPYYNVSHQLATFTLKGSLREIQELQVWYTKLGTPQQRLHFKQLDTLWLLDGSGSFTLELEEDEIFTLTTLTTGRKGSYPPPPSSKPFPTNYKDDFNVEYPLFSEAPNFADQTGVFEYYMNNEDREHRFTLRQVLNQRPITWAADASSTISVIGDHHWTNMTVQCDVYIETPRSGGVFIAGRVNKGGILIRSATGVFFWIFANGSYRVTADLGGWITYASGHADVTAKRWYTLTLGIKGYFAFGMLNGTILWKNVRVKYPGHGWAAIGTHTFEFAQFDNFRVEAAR
PARAMETER: pIC50
Just so you know, pIC50 here is -log10 of the concentration in molar units; reply with that number alone.

Which pIC50 value is on record for CCCCCCCCCCCCC/C=C\[C@@H](O)[C@H](CN[C@@H]1C=C(CO)[C@H](O)[C@H](O)[C@H]1O)NC(=O)CCCCCCCCCCCCCCC ?
5.64

###

Exercise: state measured inhibition at 10 µM for each of the compounds provided.
EXPERIMENTAL_SYSTEM: β-glucocerebrosidase (Mus musculus, UniProt P17439)
Construct: mouse liver microsome as an enzyme source; from tissue; host or cells: mouse liver microsome
Sequence (P17439 20-515): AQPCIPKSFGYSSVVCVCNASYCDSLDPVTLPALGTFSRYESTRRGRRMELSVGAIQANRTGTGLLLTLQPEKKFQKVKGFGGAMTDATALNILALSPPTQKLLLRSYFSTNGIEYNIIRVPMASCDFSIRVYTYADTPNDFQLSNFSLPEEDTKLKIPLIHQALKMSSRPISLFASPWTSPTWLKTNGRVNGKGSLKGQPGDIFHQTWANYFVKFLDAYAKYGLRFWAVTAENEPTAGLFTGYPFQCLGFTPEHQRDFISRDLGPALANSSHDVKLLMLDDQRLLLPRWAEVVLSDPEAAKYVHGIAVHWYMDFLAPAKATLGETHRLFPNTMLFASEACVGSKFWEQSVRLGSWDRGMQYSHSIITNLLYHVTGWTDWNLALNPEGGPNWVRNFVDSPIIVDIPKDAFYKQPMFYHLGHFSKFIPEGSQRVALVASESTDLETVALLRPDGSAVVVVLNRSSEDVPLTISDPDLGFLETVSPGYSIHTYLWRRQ
MEASUREMENT_NOTES: β-glucocerebrosidase inhibition with NBD-glucocerebroside (fluorescence-labeled natural substrate), mouse liver microsome
Type: biochemical
STUDY_CONDITIONS: 10 μM; NBD-glucocerebroside; mouse liver microsome
The reply should be a number in %, with the unit left off.

Quick one: inhibition at 10 µM of CCCCCCCCCCCCC/C=C/[C@@H](O)[C@H](CN[C@@H]1C=C(CO)[C@@H](O)[C@H](O)[C@H]1O)NC(=O)CCCCCCCCCCCCCCC [Compound 1E] ?
95.2

I am curious: what inhibition at 10 µM value has been reported for CCCCCCCCCCCCC/C=C\[C@@H](O)[C@H](CN[C@@H]1C=C(CO)[C@H](O)[C@H](O)[C@H]1O)NC(=O)CCCCCCCCCCCCCCC [Compound 2Z] ?
0

Please report the recorded inhibition at 10 µM for CCCCCCCCCCCCC/C=C\[C@@H](O)[C@H](CN[C@@H]1C[C@H](CO)[C@H](O)[C@H](O)[C@H]1O)NC(=O)CCCCCCCCCCCCCCC [Compound C-4, reference compound] .
0

GET /values?readout=inhibition at 10 µM&item= CCCCCCCCCCCCC/C=C\[C@@H](O)[C@H](CN[C@@H]1C[C@H](CO)[C@@H](O)[C@H](O)[C@H]1O)NC(=O)CCCCCCCCCCCCCCC [Compound C-3, reference compound]
64
